System: MOLM-13 (Acute Myeloid Leukemia);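 further: after 72 h of two-drug dosing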
Test: Bliss excess, mean over the matrix (fraction); higher = more synergy
Measured Bliss excess by item
Give the figure only, with no unit attached.

As a guide, the following entries are already answered.
Compound: CC1(C)CCC(CN2CCN(c3ccc(C(=O)NS(=O)(=O)c4ccc(NCC5CCOCC5)c([N+](=O)[O-])c4)c(Oc4cnc5[nH]ccc5c4)c3)CC2)=C(c2ccc(Cl)cc2)C1 [Venetoclax] + C[C@@H](Nc1cc(F)cc(F)c1)c1cc(C(=O)N(C)C)cc2c(=O)cc(N3CCOCC3)oc12 [AZD8186] (first compound max 1 µM, 7x7, partner max 3 µM)
Bliss excess: 0.0046
//
Compound: COc1cccc(OCCCN)c1-c1cc(Nc2cnc(C#N)cn2)n[nH]1 [Prexasertib] + O=C(c1cc(Cc2n[nH]c(=O)c3ccccc23)ccc1F)N1CCN(C(=O)C2CC2)CC1 [Olaparib] (first compound max 1 µM, 7x7, partner max 10 µM)
Bliss excess: -0.0224

Would you kindly look at the next entry?
Query string: May I ask what Bliss excess has been recorded for COc1nnc2ccc(N3CCC(c4ccc(OCCN5CCN(C)C(=O)[C@H]5C)cc4)CC3)nn12 [AZD5153] + Cc1c2c(nn1C)CSCc1cc(n(C)n1)CSc1cc(c3ccccc3c1)OCCCc1c(C(=O)O)n(C)c3c-2c(Cl)ccc13 [AZD5991] (first compound max 1 µM, 7x7, partner max 1 µM) ?
Result string: -0.0238

###

System: OCI-AML3 (Acute Myeloid Leukemia)
Test: combination Emax (second highest fraction inhibited in the dose matrix, 72 h); higher = more inhibition; extreme values may be limits of the assay
Recorded combination Emax, one value per entry.
Just the number, please.

# count of solved cases: 5
Compound: NC1(C(=O)N[C@@H](CCO)c2ccc(Cl)cc2)CCN(c2ncnc3[nH]ccc23)CC1 [Capivasertib] + CCN(CCO)CCCOc1ccc2c(Nc3cc(CC(=O)Nc4cccc(F)c4)[nH]n3)ncnc2c1 [AZD2811] (first compound max 10 µM, 7x7, partner max 1 µM)
Measured: 0.585
//
Compound: COc1nnc2ccc(N3CCC(c4ccc(OCCN5CCN(C)C(=O)[C@H]5C)cc4)CC3)nn12 [AZD5153] + CCN(CCO)CCCOc1ccc2c(Nc3cc(CC(=O)Nc4cccc(F)c4)[nH]n3)ncnc2c1 [AZD2811] (first compound max 1 µM, 7x7, partner max 1 µM)
Measured: 1
//
Compound: CN(CCO)CC[C@H](CSc1ccccc1)Nc1ccc(S(=O)(=O)NC(=O)c2ccc(N3CCC([C@@H](O)c4ccccc4-c4ccc(Cl)cc4)CC3)cc2)cc1S(=O)(=O)C(F)(F)F [AZD4320] + Nc1ccn([C@@H]2O[C@H](CO)[C@@H](O)C2(F)F)c(=O)n1 [Gemcitabine] (first compound max 1 µM, 7x7, partner max 0.3 µM)
Measured: 0.984
//
Compound: O=C(c1cc(Cc2n[nH]c(=O)c3ccccc23)ccc1F)N1CCN(C(=O)C2CC2)CC1 [Olaparib] + COc1nnc2ccc(N3CCC(c4ccc(OCCN5CCN(C)C(=O)[C@H]5C)cc4)CC3)nn12 [AZD5153] (first compound max 10 µM, 7x7, partner max 1 µM)
Measured: 1
//
Compound: C=CCn1c(=O)c2cnc(Nc3ccc(N4CCN(C)CC4)cc3)nc2n1-c1cccc(C(C)(C)O)n1 [AZD1775] + Nc1ccn([C@@H]2O[C@H](CO)[C@@H](O)C2(F)F)c(=O)n1 [Gemcitabine] (first compound max 1 µM, partner max 0.3 µM)
Measured: 0.95

Query string: Using the record for C[C@@H](Oc1cc(-c2cnn(C3CCNCC3)c2)cnc1N)c1c(Cl)ccc(F)c1Cl [Crizotinib] + CC1=C(C(=CC=C1)Cl)NC(=O)C2=CN=C(S2)NC3=CC(=NC(=N3)C)N4CCN(CC4)CCO [Dasatinib] (first compound max 10 µM, 7x7, partner max 2 µM) , report its combination Emax.
Result string: 0.639
